Reference source: patent US9877999B2

TEST NAME: clinical
MEASUREMENT CONTEXT: male, human, in vivo, sc, 240 mg, T½
Square brackets hold non-standard residues; d marks the D form. Peptide text beside a SMILES is read from it. * marks the point of attachment. dPhe(4-NHCONH2) = NC(=O)Nc1ccc(C[C@@H](N)C(=O)O)cc1; Dihydroorotyl(S) = O=C1C[C@@H](C(=O)*)NC(=O)N1; dPhe(4-Cl) = N[C@H](Cc1ccc(Cl)cc1)C(=O)O; Phe(4-NH2) = Nc1ccc(C[C@H](N)C(=O)O)cc1; d2Nal = N[C@H](Cc1ccc2ccccc2c1)C(=O)O; Lys(iPr) = CC(C)NCCCC[C@H](N)C(=O)O; d3Pal = N[C@H](Cc1cccnc1)C(=O)O
ENDPOINT: half-life (days)
Note: unit days is implicit; provide only the numeric part.

Ask | Please report the recorded half-life for CC(=O)N[C@H](Cc1ccc2ccccc2c1)C(=O)N[C@H](Cc1ccc(Cl)cc1)C(=O)N[C@H](Cc1cccnc1)C(=O)N[C@@H](CO)C(=O)N[C@@H](Cc1ccc(NC(=O)[C@@H]2CC(=O)NC(=O)N2)cc1)C(=O)N[C@H](Cc1ccc(NC(N)=O)cc1)C(=O)N[C@@H](CC(C)C)C(=O)N[C@@H](CCCCNC(C)C)C(=O)N1CCC[C@H]1C(=O)N[C@H](C)C(N)=O [degarelix] (Ac-[d2Nal][dPhe(4-Cl)][d3Pal]S[Phe(4-NH2)](Dihydroorotyl(S))[dPhe(4-NHCONH2)]L[Lys(iPr)]P[dA]-NH2) .
Reply | 43
